Where a name gives a salt, the structure may show the parent alone.
Record form. Attribute: MMP assays efficacy (%) Rat Hepatocytes. Fill in for each entry.
Please respond with the number in % and leave the unit unwritten.

IN: Please state recorded MMP assays efficacy (%) Rat Hepatocytes (tested on rat primary hepatocytes) of O=C(NC(=O)c1c(F)cccc1F)Nc1cc(Cl)c(Oc2ncc(C(F)(F)F)cc2Cl)c(Cl)c1
OUT: -79

IN: Please state recorded MMP assays efficacy (%) Rat Hepatocytes (tested on rat primary hepatocytes) of Oc1cc(Cl)cc(Cl)c1
OUT: -81

IN: Please state recorded MMP assays efficacy (%) Rat Hepatocytes (tested on rat primary hepatocytes) of Oc1cc(Cl)c(Cl)c(Cl)c1
OUT: -100

IN: Please state recorded MMP assays efficacy (%) Rat Hepatocytes (tested on rat primary hepatocytes) of CC[C@@]1(O)C[C@H](O[C@H]2C[C@H](N(C)C)[C@H](O[C@H]3C[C@H](O)[C@H](O[C@H]4CCC(=O)[C@H](C)O4)[C@H](C)O3)[C@H](C)O2)c2c(cc3c(c2O)C(=O)c2c(O)cccc2C3=O)[C@H]1C(=O)OC [Aclarubicin hydrochloride]
OUT: -49

* * *

Record form. Attribute: MMP assays efficacy (%) Rat Hepatocytes. Fill in for each entry.
# Tested on: rat primary hepatocytes
# methodDescription: MMP assay in rat primary hepatocytes
# studyConditions: rat hepatocytes; mean ± SD of three experiments
Please respond with the number in % and leave the unit unwritten.

IN: Look up MMP assays efficacy (%) Rat Hepatocytes: O=C1c2ccccc2Cc2ccccc21
OUT: -68

IN: Look up MMP assays efficacy (%) Rat Hepatocytes: CC(=O)Oc1cccc2c1C(=O)c1c(OC(C)=O)cc(C(=O)O)cc1C2=O
OUT: -70

IN: Look up MMP assays efficacy (%) Rat Hepatocytes: COc1cc(Nc2c(C#N)cnc3cc(OCCCN4CCN(C)CC4)c(OC)cc23)c(Cl)cc1Cl
OUT: -56

IN: Look up MMP assays efficacy (%) Rat Hepatocytes: CN1C(=O)/C(=N\NC(N)=S)c2ccccc21
OUT: -94

IN: Look up MMP assays efficacy (%) Rat Hepatocytes: CCN(CC)c1ccc(N)cc1
OUT: -105

IN: Look up MMP assays efficacy (%) Rat Hepatocytes: CCOc1ccc(/N=N/c2ccc(N)cc2N)cc1
OUT: -106

IN: Look up MMP assays efficacy (%) Rat Hepatocytes: Cc1cc(O)c2c(O)c3c(O)cccc3cc2c1
OUT: -52

IN: Look up MMP assays efficacy (%) Rat Hepatocytes: Oc1ccc(Cl)cc1C1CCCC1
OUT: -85

IN: Look up MMP assays efficacy (%) Rat Hepatocytes: CCC(=O)O[C@]1(C(=O)CCl)[C@@H](C)C[C@H]2[C@@H]3CCC4=CC(=O)C=C[C@]4(C)[C@@]3(F)[C@@H](O)C[C@@]21C [Clobetasol propionate]
OUT: -39

* * *

# Test system: rat primary hepatocytes
Where a SMILES comes first, the peptide text is derived from it. [ ]: non-standard residue; d: D form. Orn = NCCC[C@H](N)C(=O)O
Classify: 1 when MMP assays efficacy (%) Rat Hepatocytes is strictly less than -70%; -1 when MMP assays efficacy (%) Rat Hepatocytes is not.

IN: Answer whether the compound CCCCCCc1ccc(-c2ccc(C#N)cc2)cc1 has MMP assays efficacy (%) Rat Hepatocytes strictly less than -70%
OUT: -1

IN: Answer whether the compound O=C(O)Cc1sc(-c2ccccc2)nc1-c1ccc(Cl)cc1 has MMP assays efficacy (%) Rat Hepatocytes strictly less than -70%
OUT: 1

IN: Answer whether the compound O=[N+]([O-])c1ccc2c(c1)Cc1ccccc1-2 has MMP assays efficacy (%) Rat Hepatocytes strictly less than -70%
OUT: -1

IN: Answer whether the compound CC(=O)CC(c1ccccc1)c1c(O)c2ccccc2oc1=O (stereo not shown) [Sodium warfarin] has MMP assays efficacy (%) Rat Hepatocytes strictly less than -70%
OUT: 1

IN: Answer whether the compound Oc1cc(Cl)c(Cl)cc1Cl.[Na] [2,4,5-Trichlorophenol sodium salt] has MMP assays efficacy (%) Rat Hepatocytes strictly less than -70%
OUT: 1

IN: Answer whether the compound Nc1ccc2cc3ccccc3cc2c1 has MMP assays efficacy (%) Rat Hepatocytes strictly less than -70%
OUT: -1

IN: Answer whether the compound O=C1c2ccccc2C(=O)C1C(=O)C(c1ccccc1)c1ccc(Cl)cc1 (stereo not shown) has MMP assays efficacy (%) Rat Hepatocytes strictly less than -70%
OUT: 1

IN: Answer whether the compound Nc1ccc(N)c2ccccc12 has MMP assays efficacy (%) Rat Hepatocytes strictly less than -70%
OUT: -1

IN: Answer whether the compound Cc1ccccc1C(=O)Nc1ccc(C(=O)N2CCCC(O)c3cc(Cl)ccc32)c(C)c1 (stereo not shown) has MMP assays efficacy (%) Rat Hepatocytes strictly less than -70%
OUT: -1

IN: Answer whether the compound Oc1cc(Cl)ccc1Oc1ccc(Cl)cc1Cl has MMP assays efficacy (%) Rat Hepatocytes strictly less than -70%
OUT: -1

IN: Answer whether the compound CC(C)[C@H](C(=O)OC(C#N)c1cccc(Oc2ccccc2)c1)c1ccc(OC(F)F)cc1 (stereo partly shown) [Flucythrinate] has MMP assays efficacy (%) Rat Hepatocytes strictly less than -70%
OUT: -1

IN: Answer whether the compound COc1cccc2c1C(=O)c1c(O)c3c(c(O)c1C2=O)C[C@@](O)(C(=O)CO)C[C@@H]3O[C@H]1C[C@H](N)[C@H](O[C@@H]2CCCCO2)[C@H](C)O1 has MMP assays efficacy (%) Rat Hepatocytes strictly less than -70%
OUT: -1

IN: Answer whether the compound CC1(C)CCC(C)(C)c2cc(NC(=O)c3ccc(C(=O)O)cc3)ccc21 has MMP assays efficacy (%) Rat Hepatocytes strictly less than -70%
OUT: 1

IN: Answer whether the compound CCCCCCCCCCCCCC[n+]1ccc(C)cc1.[Cl-] [Miripirium chloride] has MMP assays efficacy (%) Rat Hepatocytes strictly less than -70%
OUT: 1

IN: Answer whether the compound O=C(NC(=O)c1c(F)cccc1F)Nc1cc(Cl)c(OC(F)(F)C(F)C(F)(F)F)cc1Cl (stereo not shown) has MMP assays efficacy (%) Rat Hepatocytes strictly less than -70%
OUT: 1

IN: Answer whether the compound CN1C(=O)[C@@H](NC(=O)c2cc3ccccc3[nH]2)N=C(c2ccccc2)c2ccccc21 [Devazepide] has MMP assays efficacy (%) Rat Hepatocytes strictly less than -70%
OUT: -1

IN: Answer whether the compound O=C(CCCN1CCC2(CC1)C(=O)NCN2c1ccccc1)c1ccc(F)cc1 has MMP assays efficacy (%) Rat Hepatocytes strictly less than -70%
OUT: 1

IN: Answer whether the compound Oc1ccc(Cl)cc1Sc1cc(Cl)ccc1O has MMP assays efficacy (%) Rat Hepatocytes strictly less than -70%
OUT: 1

IN: Answer whether the compound CC(C)(c1ccccc1)c1ccc(O)cc1 has MMP assays efficacy (%) Rat Hepatocytes strictly less than -70%
OUT: 1

IN: Answer whether the compound CC(C)C[C@@H]1NC(=O)[C@H](CCCN)NC(=O)[C@H](C(C)C)NC(=O)[C@@H]2CCCN2C(=O)[C@@H](Cc2ccccc2)NC(=O)[C@H](CC(C)C)NC(=O)[C@H](CCCN)NC(=O)[C@H](C(C)C)NC(=O)[C@@H]2CCCN2C(=O)[C@@H](Cc2ccccc2)NC1=O [gramicidin, reference compound] (cyclo(L[dF]PV[Orn]L[dF]PV[Orn])) has MMP assays efficacy (%) Rat Hepatocytes strictly less than -70%
OUT: 1
